# study target: T1, Human CD137 ECD (human)
# T1 construct: also called 4-1BB
# T1 sequence (chain, as listed by the source limits assumed): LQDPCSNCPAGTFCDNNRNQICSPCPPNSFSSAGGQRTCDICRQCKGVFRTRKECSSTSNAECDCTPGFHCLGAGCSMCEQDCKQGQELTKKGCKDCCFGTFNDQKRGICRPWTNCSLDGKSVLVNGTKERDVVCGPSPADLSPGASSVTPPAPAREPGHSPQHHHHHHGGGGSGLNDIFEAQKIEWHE
# measurement protocol: single mutant vs template dBBDu183H
recorded metric: fold change of affinity (fold)
The response must be a number in fold with no trailing unit.

Input: Fill in: fold change of affinity of H183/L072 VH K52bL (antibody, name in Kabat numbering, V domains shown) VH: QVQLVESGGGLVQPGRSLRLSCAASGFTFSNAWMHWVRQAPGKGLEWVAQIKDLGNAYAAYYAPSVKGRFTISRDDSKNSIYLQMNSLKTEDTAVYYCHYVHYASASTVLPAFGVDAWGQGTTVTVSS VL: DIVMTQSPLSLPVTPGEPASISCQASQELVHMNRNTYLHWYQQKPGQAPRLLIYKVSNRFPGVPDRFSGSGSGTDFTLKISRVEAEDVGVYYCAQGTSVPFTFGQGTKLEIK is ___
Output: 0.5

Input: Fill in: fold change of affinity of H183/L072 VH K52bN (antibody, name in Kabat numbering, V domains shown) VH: QVQLVESGGGLVQPGRSLRLSCAASGFTFSNAWMHWVRQAPGKGLEWVAQIKDNGNAYAAYYAPSVKGRFTISRDDSKNSIYLQMNSLKTEDTAVYYCHYVHYASASTVLPAFGVDAWGQGTTVTVSS VL: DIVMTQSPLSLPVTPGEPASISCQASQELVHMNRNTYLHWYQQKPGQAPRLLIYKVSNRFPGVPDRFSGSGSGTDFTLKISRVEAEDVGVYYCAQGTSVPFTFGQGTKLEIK is ___
Output: 0.2

Input: Fill in: fold change of affinity of H183/L072 VH G26Y (antibody, name in Kabat numbering, V domains shown) VH: QVQLVESGGGLVQPGRSLRLSCAASYFTFSNAWMHWVRQAPGKGLEWVAQIKDKGNAYAAYYAPSVKGRFTISRDDSKNSIYLQMNSLKTEDTAVYYCHYVHYASASTVLPAFGVDAWGQGTTVTVSS VL: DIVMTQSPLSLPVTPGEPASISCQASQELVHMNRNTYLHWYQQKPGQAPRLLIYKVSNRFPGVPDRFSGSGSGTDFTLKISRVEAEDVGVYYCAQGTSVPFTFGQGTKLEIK is ___
Output: 0.3
